- EXPERIMENTAL TARGET: Sodium- and chloride-dependent GABA transporter 1 (Mus musculus, UniProt P31648)
- ASSAY NAME: Inhibition of mouse mGAT1 expressed in HEK293 cells assessed as inhibition of [3H]GABA uptake after 3 mins incubation by TopCount microplate scintillation counting analysis
- Type: cell-based
- CONDITION DESCRIPTION: read-out: IC50
OUTCOME MEASURE: IC50 (µM)

> print(dat)
                                   compound  outcome.measure  comparison.symbol  reading
1  O=C(O)CCNCc1cn(CCOC(c2ccc(C(F)(F)F)cc2)c2ccc(C(F)(F)F)cc2)nn1             IC50                  >     1000
2  CCOC(=O)[C@@H]1CCCC[C@@H]1N(C)CCOC(c1ccc(C(F)(F)F)cc1)c1ccc(C(F)(F)F)cc1             IC50                  =      508
3  CCCCN1CCN(CCON=C(c2ccccc2)c2ccccc2)CC(C(=O)O)C1 (configuration not stated)             IC50                  >     1000
4  CN(CCC=C1c2ccccc2CCc2ccccc21)[C@H]1CCCC[C@H]1C(=O)O             IC50                  =     1360
5  CN(CCC=C1c2ccccc2CCc2ccccc21)[C@@H]1CCCC[C@H]1C(=O)O             IC50                  =      614
6         O=C(O)CCNCCON=C(c1ccccc1)c1ccccc1             IC50                  =     6.99
7  O=C(O)C1CNCCN(CCON=C(c2ccccc2)c2ccccc2)C1 (configuration not stated)             IC50                  =      667
